// data source = patent US6887873B2

- Tested on: human telomerease (HL60 cell extract)
- ASSAY EXPLANATION: Antitelomerease activity: extension of oligonucleotide TS followed by PCR amplification, with HL60 extract
- Type: biochemical
- EXPERIMENTAL PARAMETERS: read-out: TRAP IC50
In this section, each of the molecules is paired with its reported IC50.
ASSAY ENDPOINT: IC50

                                    molecule                      system_under_test  assay_endpoint  recorded_measurement
 0  Cc1cc(N(C)C)c2cc(Nc3nc(Nc4ccc5nc(C)cc(N(C)C)c5c4)nc(N(C)C4CCN(C)CC4)n3)ccc2n1  human telomerease (HL60 cell extract)            IC50                500 nM
 1  CCN(CCN(C)C)c1nc(Nc2ccc3nc(C)cc(N)c3c2)nc(Nc2ccc3nc(C)cc(N)c3c2)n1  human telomerease (HL60 cell extract)            IC50                200 nM
 2  Cc1cc(N(C)C)c2cc(Nc3nc(Nc4ccc5nc(C)cc(N(C)C)c5c4)nc(N4CCN(C5CCCC5)CC4)n3)ccc2n1  human telomerease (HL60 cell extract)            IC50                400 nM
 3  Cc1cc(N)c2cc(Nc3nc(NCCN(C)C)nc(Nc4ccccc4Cl)n3)ccc2n1  human telomerease (HL60 cell extract)            IC50               2700 nM
 4  CCN(CC)CCNc1nc(Nc2ccc3nc(C)cc(N)c3c2)nc(Nc2ccc3nc(C)cc(N)c3c2)n1  human telomerease (HL60 cell extract)            IC50                240 nM
 5  Cc1cc(N)c2cc(Nc3nc(NCc4ccc([N+](C)(C)C)cc4)nc(Nc4ccc5nc(C)cc(N)c5c4)n3)ccc2n1  human telomerease (HL60 cell extract)            IC50               3000 nM
 6  Cc1cc(N)c2cc(Nc3nc(Nc4ccccc4Cl)nc(NC4CCN(C)CC4)n3)ccc2n1  human telomerease (HL60 cell extract)            IC50               2400 nM
 7  CCCN(CCC)CCN1CCN(c2nc(Nc3ccc4nc(C)cc(N(C)C)c4c3)nc(Nc3ccc4nc(C)cc(N(C)C)c4c3)n2)CC1  human telomerease (HL60 cell extract)            IC50               1000 nM
 8  Cc1cc(N)c2cc(Nc3nc(Nc4ccc5nc(C)cc(N)c5c4)nc(Nc4cccc5nn[nH]c45)n3)ccc2n1  human telomerease (HL60 cell extract)            IC50                360 nM
 9  Cc1cc(N)c2cc(Nc3nc(NCCN4CCCC4)nc(Nc4ccc5nc(C)cc(N)c5c4)n3)ccc2n1  human telomerease (HL60 cell extract)            IC50               1000 nM
10  Cc1cc(N(C)C)c2cc(Nc3nc(Nc4ccc5nc(C)cc(N(C)C)c5c4)nc(N4CCC(O)CC4)n3)ccc2n1  human telomerease (HL60 cell extract)            IC50               1600 nM
11  COCCNc1nc(Nc2ccc3nc(C)cc(N(C)C)c3c2)nc(Nc2ccc3nc(C)cc(N(C)C)c3c2)n1  human telomerease (HL60 cell extract)            IC50               2200 nM
12  Cc1cc(N)c2cc(Nc3nc(Nc4ccc5nc(C)cc(N)c5c4)nc(N4CCN(CCc5ccccc5)CC4)n3)ccc2n1  human telomerease (HL60 cell extract)            IC50                300 nM
13  COc1cccc(CNc2nc(Nc3ccc4nc(C)cc(N)c4c3)nc(Nc3ccc4nc(C)cc(N)c4c3)n2)c1  human telomerease (HL60 cell extract)            IC50               1300 nM
14  Cc1cc(N)c2cc(Nc3nc(NCC4CCCN4)nc(Nc4ccc5nc(C)cc(N)c5c4)n3)ccc2n1 (stereo not drawn)  human telomerease (HL60 cell extract)            IC50                 80 nM
